Data credit: the supplement of paper PMC10567573

protein stability index overview
B1: WDFY1 (parent)
chain: LLIPKEDGVITASEDRTIRVWLKR

Variants of: B1
assay-explanation: protein stability index of a GFP-peptide fusion (GPS, HEK-293T) (PSI 1-6); higher = more stable;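 note: lentivirally expressed fusions sorted by FACS into six bins by GFP to DsRed ratio, PSI derived from sequencing read proportions per bin multiplied by bin number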
study-conditions: c terminus: a fixed tail appended
// keep it numeric: no unit symbol after the value

Here are 8 variants together with their reported answers.
> print(dat)
   mutant.name  numeric.readout
1         A12H             2.08
2         R16A             1.92
3         W21E             3.37
4         R16M             2.19
5         W21V             3.07
6         I10N             2.54
7          P4N             2.19
8         W21S              2.8

// protein stability index value for S13Q : 3.07

// protein stability index value for P4F : 2.78

// protein stability index value for L1C : 2.35
